# Assay Notes: Inhibition of PMPMEase (unknown origin) using RD-PNB as substrate incubated for 15 mins prior to substrate addition measured after 2 hrs by RP-HPLC analysis
# Parameters: species or system Homo sapiens
Measurement Label: Ki

compound_string=CC(C)=CCC/C(C)=C/CC/C(C)=C/CSC[C@H](NC(=O)CCCCCN1CCCC1)C(=O)N1CCCC1 result="9.7 µM"
compound_string=CC(C)=CCC/C(C)=C/CC/C(C)=C/CSC[C@H](NC(=O)CCCCCN1CCN(C)CC1)C(=O)N1CCCC1 result="20 µM"
compound_string=CC(C)=CCC/C(C)=C/CC/C(C)=C/CSC[C@H](NC(=O)CCCCCN1CCN(C)CC1)C(=O)NC1CC1 result="13.8 µM"
compound_string=CC(C)=CCC/C(C)=C/CC/C(C)=C/CSC[C@H](NC(=O)CCCCCN1CCN(C)CC1)C(=O)NC1CCCCC1 result="16.9 µM"
compound_string=CC(C)=CCC/C(C)=C/CC/C(C)=C/CSC[C@H](NC(=O)CCCCCN1CCCC1)C(=O)NC1CCCCCC1 result="11.6 µM"
compound_string=CC(C)=CCC/C(C)=C/CC/C(C)=C/CSC[C@H](NC(=O)CCCCCN1CCCC1)C(=O)NC1CCCC1 result="3.7 µM"
compound_string=CC(C)=CCC/C(C)=C/CC/C(C)=C/CSC[C@H](NC(=O)CCCCCN1CCN(C)CC1)C(=O)NC1CCCC1 result="10.1 µM"
compound_string=CC(C)=CCC/C(C)=C/CC/C(C)=C/CSC[C@H](NC(=O)CCCCCN1CCCC1)C(=O)NC1CC1 result="17.5 µM"
compound_string=CC(C)=CCC/C(C)=C/CC/C(C)=C/CSC[C@H](NC(=O)CCCCCN1CCN(C)CC1)C(=O)NC1CCCCCC1 result="17.6 µM"
compound_string=CC(C)=CCC/C(C)=C/CC/C(C)=C/CSC[C@H](NC(=O)CCCCCN1CCN(C)CC1)C(=O)N1CCCCC1 result="13 µM"
compound_string=CC(C)=CCC/C(C)=C/CC/C(C)=C/CSC[C@H](NC(=O)CCCCCN1CCN(C)CC1)C(=O)NC1CCCCCCC1 result="15.2 µM"
compound_string=CC(C)=CCC/C(C)=C/CC/C(C)=C/CSC[C@H](NC(=O)CCCCCN1CCCC1)C(=O)NC1CCCCC1 result="11.2 µM"
compound_string=CC(C)=CCC/C(C)=C/CC/C(C)=C/CSC[C@H](NC(=O)CCCCCN1CCCC1)C(=O)N1CCCCC1 result="11 µM"
compound_string=CC(C)=CCC/C(C)=C/CC/C(C)=C/CSC[C@H](NC(=O)CCCCCN1CCCC1)C(=O)NC1CCCCCCC1 result="11.9 µM"

---

# Assay Notes: Cytotoxicity against human BxPC3 cells after 48 hrs by fluorescence assay
# Format: functional, cell-based
# Assay Conditions: BXPC-3, 48 h
pEC50: −log10 of the molar value.
Measurement Label: pEC50

compound_string=CC(C)=CCC/C(C)=C/CC/C(C)=C/CSC[C@H](NC(=O)CCCCCN1CCN(C)CC1)C(=O)N1CCCCC1 measurement_label=pEC50 limit_sign== number=5.06
compound_string=CC(C)=CCC/C(C)=C/CC/C(C)=C/CSC[C@H](NC(=O)CCCCCN1CCN(C)CC1)C(=O)N1CCCC1 measurement_label=pEC50 limit_sign== number=5.49
compound_string=CC(C)=CCC/C(C)=C/CC/C(C)=C/CSc1ccccc1C(N)=O measurement_label=pEC50 limit_sign=< number=4.70
compound_string=CC(C)=CCC/C(C)=C/CC/C(C)=C/CSC[C@H](NC(=O)CCCCCN1CCN(C)CC1)C(=O)NC1CCCCC1 measurement_label=pEC50 limit_sign== number=4.92
compound_string=CC(C)=CCC/C(C)=C/CC/C(C)=C/CSC[C@H](NC(=O)CCCCCN1CCN(C)CC1)C(=O)NC1CCCCCCC1 measurement_label=pEC50 limit_sign== number=5.12
compound_string=CC(C)=CCC/C(C)=C/CC/C(C)=C/CSC[C@H](NC(=O)CCCCCN1CCN(C)CC1)C(=O)NC1CCCCCC1 measurement_label=pEC50 limit_sign== number=5.21
compound_string=CC(C)=CCC/C(C)=C/CC/C(C)=C/CSC[C@H](NC(=O)CCCCCN1CCCC1)C(=O)NC1CCCCCCC1 measurement_label=pEC50 limit_sign== number=5.40
compound_string=CC(C)=CCC/C(C)=C/CC/C(C)=C/CSC[C@H](NC(=O)CCCCCN1CCCC1)C(=O)NC1CC1 measurement_label=pEC50 limit_sign=< number=4.70
